# assay.comment: Inhibition of beta-lactamase AmpC
IC50 for assorted compounds

{"compound": "Cc1ccc(C)n1C(Cc1ccccc1)C(=O)O (stereo unspecified)", "value.relation.sign": "=", "IC50 / µM": 95}
{"compound": "COc1cc2c(=O)n(Cc3ccco3)c(=O)n(CC(=O)c3cccc(Br)c3)c2cc1OC", "value.relation.sign": ">", "IC50 / µM": 600}
{"compound": "O=C(NCCc1ccccc1)C1CCCN(S(=O)(=O)c2cccc3nsnc23)C1 (stereo unspecified)", "value.relation.sign": ">", "IC50 / µM": 600}
{"compound": "CS(=O)(=O)N1CCC(C(=O)N2CCC(Cc3ccccc3)CC2)CC1", "value.relation.sign": ">", "IC50 / µM": 600}
{"compound": "S=C(S)OC1CC2CC1C1CCCC21 (stereo unspecified)", "value.relation.sign": "=", "IC50 / µM": 270}
{"compound": "CCOC(=O)C1=C(c2ccccc2)NC(SCC(=O)Nc2ccc(C)cc2)=C(C#N)C1c1ccco1 (stereo unspecified)", "value.relation.sign": "=", "IC50 / µM": 22}

====

# system.name: Cruzipain (Trypanosoma cruzi, UniProt P25779)
# Sequence (P25779 whole entry): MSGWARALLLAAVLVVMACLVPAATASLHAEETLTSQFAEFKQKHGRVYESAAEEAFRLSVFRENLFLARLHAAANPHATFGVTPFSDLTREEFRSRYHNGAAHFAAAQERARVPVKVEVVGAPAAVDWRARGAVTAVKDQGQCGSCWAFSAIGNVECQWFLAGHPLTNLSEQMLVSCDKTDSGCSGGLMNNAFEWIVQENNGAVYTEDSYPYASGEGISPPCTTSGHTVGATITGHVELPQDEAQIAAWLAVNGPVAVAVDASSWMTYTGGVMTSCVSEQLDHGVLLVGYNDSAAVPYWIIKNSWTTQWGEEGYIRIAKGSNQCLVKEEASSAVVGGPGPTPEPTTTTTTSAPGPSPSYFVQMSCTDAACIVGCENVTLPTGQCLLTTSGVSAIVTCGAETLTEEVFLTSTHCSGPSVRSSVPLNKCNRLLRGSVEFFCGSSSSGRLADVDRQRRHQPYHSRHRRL
# assay.comment: Inhibition of cruzain
endpoint: IC50 (µM)

{"compound": "O=C(Oc1cccnc1)c1cc2ccccc2oc1=O", "endpoint": "IC50", "value.relation.sign": "=", "measured": 70}
{"compound": "O=C(O)c1ccc2c(c1)C(=O)N(C(Cc1ccc(O)cc1)C(=O)O)C2=O (racemic)", "endpoint": "IC50", "value.relation.sign": ">", "measured": 10000}
{"compound": "N[C@@H](Cc1cc(-c2ccc(Cl)cc2Cl)cc(CP(=O)(O)O)c1O)C(=O)O", "endpoint": "IC50", "value.relation.sign": "=", "measured": 77}
{"compound": "Cc1ccc(C)n1C(Cc1ccccc1)C(=O)O (centres undefined)", "endpoint": "IC50", "value.relation.sign": "<", "measured": 1}
{"compound": "C[C@H]1[C@H]2C=C[C@@H]1[C@@H](C(=O)O)[C@@H]2c1c2ccc(=O)c(O)c-2oc2c(O)c(O)ccc12", "endpoint": "IC50", "value.relation.sign": "=", "measured": 95}
{"compound": "O=C(CC1(O)C(=O)Nc2cc(Cl)cc(Cl)c21)c1ccccc1O (centres undefined)", "endpoint": "IC50", "value.relation.sign": "=", "measured": 73}
{"compound": "CC(C)[C@H](NC(=O)OC(C)(C)C)c1nnc(S(=O)(=O)Cc2c(F)cccc2Cl)o1 (stereo in doubt)", "endpoint": "IC50", "value.relation.sign": "<", "measured": 1}
{"compound": "CCOC(=O)SC1=N/C(=C/c2ccc(N(C)C)cc2)C(=O)S1", "endpoint": "IC50", "value.relation.sign": "<", "measured": 1}
{"compound": "O=c1oc2c(O)c(O)cc3c(=O)oc4c(O)c(O)cc1c4c23", "endpoint": "IC50", "value.relation.sign": "=", "measured": 64}

====

# assay.comment: Inhibition of malate dehydrogenase
pIC50: −log10 of the molar value.
pIC50 for assorted compounds

{"compound": "CCOC(=O)C1=C(c2ccccc2)NC(SCC(=O)Nc2ccc(C)cc2)=C(C#N)C1c1ccco1 (stereo not given)", "value.relation.sign": "=", "pIC50": 5.30}
{"compound": "CC(C)[C@H](NC(=O)OC(C)(C)C)c1nnc(S(=O)(=O)Cc2c(F)cccc2Cl)o1 (stereo in doubt; 1)", "value.relation.sign": "<", "pIC50": 3.22}
{"compound": "S=C(S)OC1CC2CC1C1CCCC21 (stereo not given)", "value.relation.sign": "<", "pIC50": 3.22}
{"compound": "Cc1ccc(C)n1C(Cc1ccccc1)C(=O)O (stereo not given)", "value.relation.sign": "=", "pIC50": 4.82}
{"compound": "O=C(O)C1=CC(=C(c2ccc(O)c(C(=O)O)c2)c2ccc(O)c(C(=O)O)c2)C=CC1=O", "value.relation.sign": "=", "pIC50": 5.30}
{"compound": "COc1cccc2cc(C(=O)n3ccc(C)n3)c(=O)oc12", "value.relation.sign": "<", "pIC50": 3.22}
{"compound": "N[C@@H](Cc1cc(-c2ccc(Cl)cc2Cl)cc(CP(=O)(O)O)c1O)C(=O)O", "value.relation.sign": "<", "pIC50": 3.22}
{"compound": "Cc1occc1C(=O)n1nnc2ccccc21", "value.relation.sign": "=", "pIC50": 4.19}
{"compound": "C[C@H]1[C@H]2C=C[C@@H]1[C@@H](C(=O)O)[C@@H]2c1c2ccc(=O)c(O)c-2oc2c(O)c(O)ccc12", "value.relation.sign": "=", "pIC50": 4.74}
{"compound": "O=C(NCCc1ccccc1)C1CCCN(S(=O)(=O)c2cccc3nsnc23)C1 (stereo not given)", "value.relation.sign": "<", "pIC50": 3.22}

====

# assay.comment: Inhibition of beta-lactamase AmpC
IC50 for assorted compounds

{"compound": "CN(C)C/C=C(\\c1ccc(Br)cc1)c1cccnc1", "IC50": "> 600 µM"}
{"compound": "CCOc1ccccc1CNC(=O)c1cc2occc2n1C", "IC50": "> 600 µM"}
{"compound": "COc1ccc(-c2cc(C(=O)NCc3ccccc3)no2)cc1OC", "IC50": "> 600 µM"}
{"compound": "N#Cc1cccc(-c2nc(NCc3cccnc3)c3ccccc3n2)c1", "IC50": "> 600 µM"}
{"compound": "O=C(Nc1nc2n(n1)C(c1ccccc1)C=C(c1ccccc1)N2)c1ccco1 (stereo unspecified)", "IC50": "< 600 µM"}
{"compound": "COc1cccc2cc(C(=O)n3ccc(C)n3)c(=O)oc12", "IC50": "25 µM"}

====

# assay.comment: Inhibition of beta-lactamase AmpC in presence of 0.1% Triton X-100
pIC50: −log10 of the molar value.
endpoint: pIC50

{"compound": "S=C(S)OC1CC2CC1C1CCCC21 (stereo unspecified)", "endpoint": "pIC50", "measured": "< 3.22"}
{"compound": "O=C(O)c1ccc2c(c1)C(=O)N(C(Cc1ccc(O)cc1)C(=O)O)C2=O (racemic)", "endpoint": "pIC50", "measured": 3.68}
{"compound": "CCOC(=O)SC1=N/C(=C/c2ccc(N(C)C)cc2)C(=O)S1", "endpoint": "pIC50", "measured": "< 3.22"}
{"compound": "O=c1oc2c(O)c(O)cc3c(=O)oc4c(O)c(O)cc1c4c23", "endpoint": "pIC50", "measured": "< 3.22"}
{"compound": "CC(C)(C)OC(=O)NCc1nnc(S(=O)(=O)Cc2ccc(Cl)cc2Cl)o1", "endpoint": "pIC50", "measured": "> 6.00"}
{"compound": "Cc1ccc(C)n1C(Cc1ccccc1)C(=O)O (stereo unspecified)", "endpoint": "pIC50", "measured": "< 3.22"}
{"compound": "COc1cccc2cc(C(=O)n3ccc(C)n3)c(=O)oc12", "endpoint": "pIC50", "measured": 4.70}
{"compound": "C[C@H]1[C@H]2C=C[C@@H]1[C@@H](C(=O)O)[C@@H]2c1c2ccc(=O)c(O)c-2oc2c(O)c(O)ccc12", "endpoint": "pIC50", "measured": "< 3.22"}
{"compound": "O=C(O)C1=CC(=C(c2ccc(O)c(C(=O)O)c2)c2ccc(O)c(C(=O)O)c2)C=CC1=O", "endpoint": "pIC50", "measured": "< 3.22"}
{"compound": "Cc1occc1C(=O)n1nnc2ccccc21", "endpoint": "pIC50", "measured": 4.42}
{"compound": "O=C(Oc1cccnc1)c1cc2ccccc2oc1=O", "endpoint": "pIC50", "measured": 4.37}
{"compound": "O=C(Nc1nc2n(n1)C(c1ccccc1)C=C(c1ccccc1)N2)c1ccco1 (stereo unspecified)", "endpoint": "pIC50", "measured": "> 3.22"}
{"compound": "CCCC12CN(C(=O)c3ccc(OC)cc3)CC(C)(CN(C(=O)c3ccc(OC)cc3)C1)C2=O", "endpoint": "pIC50", "measured": 4.02}
{"compound": "CCOC(=O)/C(C(C)=O)=C1\\OC(=O)c2ccccc21", "endpoint": "pIC50", "measured": 4.24}
{"compound": "CC(C)(C)OC(=O)NCCc1nnc(S(=O)(=O)Cc2ccc(Cl)cc2Cl)o1", "endpoint": "pIC50", "measured": "> 6.00"}
{"compound": "CC(C)C[C@H](N)c1nnc(S(=O)(=O)Cc2ccc(F)cc2)o1", "endpoint": "pIC50", "measured": 3.22}
{"compound": "CS(=O)(=O)N1CCC(C(=O)N2CCC(Cc3ccccc3)CC2)CC1", "endpoint": "pIC50", "measured": "< 3.22"}
{"compound": "N[C@@H](Cc1cc(-c2ccc(Cl)cc2Cl)cc(CP(=O)(O)O)c1O)C(=O)O", "endpoint": "pIC50", "measured": 3.66}
{"compound": "CCOC(=O)C1=C(c2ccccc2)NC(SCC(=O)Nc2ccc(C)cc2)=C(C#N)C1c1ccco1 (stereo unspecified)", "endpoint": "pIC50", "measured": "< 3.22"}
{"compound": "CC(C)[C@H](NC(=O)OC(C)(C)C)c1nnc(S(=O)(=O)Cc2c(F)cccc2Cl)o1 (stereo in doubt; 1)", "endpoint": "pIC50", "measured": "> 6.00"}
{"compound": "O=C(CC1(O)C(=O)Nc2cc(Cl)cc(Cl)c21)c1ccccc1O (stereo unspecified)", "endpoint": "pIC50", "measured": "< 3.22"}
